Run description: Cmax in normally fed BALB/c mouse at 10 mg/kg, im
Assay type: ADME, organism-based
Set-up: dose 10 mg/kg, route intramuscular
Conditions: in vivo
Endpoint name: Cmax

IN: What value of measured Cmax is listed for NC[C@H]1O[C@H](O[C@H]2[C@H](O)[C@@H](O[C@H]3O[C@H](CO)[C@@H](O)[C@H](N)[C@H]3O)[C@H](N)C[C@@H]2N)[C@H](N)C[C@@H]1O ?
OUT: 16500 ng/mL

###

Run description: Oral bioavailability in 15 hrs fasted BALB/c mouse at 50 mg/kg, po
Format: ADME, organism-based
Conditions: in vivo
Endpoint name: bioavailability (%)
// note: answer is a bare numeric in %

IN: What value of measured bioavailability is listed for NC[C@H]1O[C@H](O[C@H]2[C@H](O)[C@@H](O[C@H]3O[C@H](CO)[C@@H](O)[C@H](N)[C@H]3O)[C@H](N)C[C@@H]2N)[C@H](N)C[C@@H]1O ?
OUT: 12.4

###

Run description: AUC (0 to infinity) in normally fed BALB/c mouse at 10 mg/kg, im
Assay type: ADME, organism-based
Set-up: time infinity, dose 10 mg/kg, route intramuscular
Conditions: plasma
Endpoint name: AUC(0-inf)
Answer with the figure and its unit, nothing else.

IN: What value of measured AUC(0-inf) is listed for NC[C@H]1O[C@H](O[C@H]2[C@H](O)[C@@H](O[C@H]3O[C@H](CO)[C@@H](O)[C@H](N)[C@H]3O)[C@H](N)C[C@@H]2N)[C@H](N)C[C@@H]1O [TOBRAMYCIN] ?
OUT: 11100 ng·h/mL

###

Run description: AUC (0 to infinity) in 15 hrs fasted BALB/c mouse at 50 mg/kg, po
Assay type: ADME, organism-based
Set-up: time infinity, dose 50 mg/kg, route oral
Conditions: plasma
Endpoint name: AUC(0-inf) (µg·h/mL)
// note: answer is a bare numeric in µg·h/mL

IN: What value of measured AUC(0-inf) is listed for NC[C@H]1O[C@H](O[C@H]2[C@H](O)[C@@H](O[C@H]3O[C@H](CO)[C@@H](O)[C@H](N)[C@H]3O)[C@H](N)C[C@@H]2N)[C@H](N)C[C@@H]1O ?
OUT: 7.3

###

Run description: Cmax in normally fed BALB/c mouse at 50 mg/kg, po
Type: ADME, organism-based
Set-up: dose 50 mg/kg, route oral
Conditions: in vivo
Endpoint name: Cmax (ng/mL)
// note: answer is a bare numeric in ng/mL

IN: What value of measured Cmax is listed for NC[C@H]1O[C@H](O[C@H]2[C@H](O)[C@@H](O[C@H]3O[C@H](CO)[C@@H](O)[C@H](N)[C@H]3O)[C@H](N)C[C@@H]2N)[C@H](N)C[C@@H]1O ?
OUT: 330

###

Run description: Half life in normally fed BALB/c mouse at 10 mg/kg, iv
Assay type: ADME, organism-based
Set-up: dose 10 mg/kg, route intravenous
Conditions: in vivo
Endpoint name: half-life

IN: What value of measured half-life is listed for NC[C@H]1O[C@H](O[C@H]2[C@H](O)[C@@H](O[C@H]3O[C@H](CO)[C@@H](O)[C@H](N)[C@H]3O)[C@H](N)C[C@@H]2N)[C@H](N)C[C@@H]1O ?
OUT: 20.3 min
